- tested system: VEGFR2, unphosphorylated (Homo sapiens (Human))
- Sequence (P35968 20-1356): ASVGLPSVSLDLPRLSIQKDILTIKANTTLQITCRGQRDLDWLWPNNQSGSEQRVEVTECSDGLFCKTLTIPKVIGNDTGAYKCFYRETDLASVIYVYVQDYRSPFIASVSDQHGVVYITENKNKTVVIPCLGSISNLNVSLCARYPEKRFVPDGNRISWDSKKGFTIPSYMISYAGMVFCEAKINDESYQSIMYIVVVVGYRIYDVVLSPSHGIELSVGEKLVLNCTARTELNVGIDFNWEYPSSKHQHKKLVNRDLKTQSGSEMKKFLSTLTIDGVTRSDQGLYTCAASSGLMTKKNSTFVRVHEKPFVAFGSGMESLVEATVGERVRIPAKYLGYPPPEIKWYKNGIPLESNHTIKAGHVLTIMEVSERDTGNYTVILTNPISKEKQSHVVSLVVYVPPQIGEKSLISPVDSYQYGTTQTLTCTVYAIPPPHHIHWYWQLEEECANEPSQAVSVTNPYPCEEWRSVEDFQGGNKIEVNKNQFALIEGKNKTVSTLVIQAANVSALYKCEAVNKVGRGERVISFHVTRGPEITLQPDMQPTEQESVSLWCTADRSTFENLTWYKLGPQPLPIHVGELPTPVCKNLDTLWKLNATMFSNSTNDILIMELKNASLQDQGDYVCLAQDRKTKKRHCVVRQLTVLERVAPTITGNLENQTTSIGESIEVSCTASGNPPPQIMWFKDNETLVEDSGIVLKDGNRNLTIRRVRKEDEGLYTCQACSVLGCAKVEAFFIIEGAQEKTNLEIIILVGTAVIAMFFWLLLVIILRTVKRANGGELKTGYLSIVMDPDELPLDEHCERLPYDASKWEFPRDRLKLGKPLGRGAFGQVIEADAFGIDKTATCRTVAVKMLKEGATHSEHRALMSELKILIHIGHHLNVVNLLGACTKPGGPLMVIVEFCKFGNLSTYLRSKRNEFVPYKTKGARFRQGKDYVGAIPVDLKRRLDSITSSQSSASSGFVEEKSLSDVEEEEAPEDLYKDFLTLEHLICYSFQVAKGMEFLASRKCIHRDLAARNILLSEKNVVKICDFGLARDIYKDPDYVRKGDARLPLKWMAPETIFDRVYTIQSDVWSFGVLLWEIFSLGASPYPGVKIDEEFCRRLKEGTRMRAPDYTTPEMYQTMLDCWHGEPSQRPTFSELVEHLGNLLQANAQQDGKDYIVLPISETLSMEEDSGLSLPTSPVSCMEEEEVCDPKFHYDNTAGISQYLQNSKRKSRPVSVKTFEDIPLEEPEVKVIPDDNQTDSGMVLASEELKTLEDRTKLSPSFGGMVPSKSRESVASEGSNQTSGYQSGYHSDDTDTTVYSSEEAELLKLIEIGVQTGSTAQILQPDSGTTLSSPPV
- experiment notes: VEGFR ADP GLO Assay
pIC50: −log10 of the molar value.
# pIC50 per record follows
observed property: pIC50

Cc1ncc(C(=O)NCCNCCO)cc1NC(=O)c1cnn2cc(-c3cnn(C)c3)sc12    < 5.12
Cc1ncc(C(=O)NCCN2CCCC2(C)C)cc1NC(=O)c1cnn2cc(-c3cncc(S(C)(=O)=O)c3)sc12    < 5.60
COC/C=C/c1cn2ncc(C(=O)Nc3cc(C(=O)NCCN4CCCC4(C)C)cnc3C)c2s1    < 5.12
Cc1ncc(NC(=O)CCN2CCCC2(C)C)cc1NC(=O)c1cnn2cc(-c3ccn(C)n3)sc12    < 5.12
COCCn1cc(-c2cn3ncc(C(=O)Nc4cc(NC(=O)[C@H]5CCCN5C(C)C)cnc4C)c3s2)cn1    < 5.12
Cc1cc(C(=O)NCCN2CC[C@@H](O)C2)sc1NC(=O)c1cnn2cc(-c3cnn(C)c3)sc12    5.69
Cc1ncc(NC(=O)CN2CC(C)(C)C2)cc1NC(=O)c1cnn2cc(-c3cc[nH]c3)sc12    < 5.12

----------
- tested system: VEGFR2, unphosphorylated (Homo sapiens (Human))
- experiment notes: VEGFR ADP GLO Assay
- Assay type: biochemical
// reported IC50 per item
observed property: IC50

COc1cccc(-c2cn3ncc(C(=O)Nc4cc(NC(=O)CN5C[C@H](C)O[C@@H](C)C5)cnc4C)c3s2)n1 (relative stereo) [Example 386]    > 0.833 µM
COc1ncccc1-c1cn2ncc(C(=O)Nc3cc(NC(=O)CN4CCC5(CCOC5)C4)cnc3C)c2s1 (stereo not shown) [Example 320]    > 7.5 µM
Cc1ncc(C(=O)NCCN2CCC3(CC3)C2)cc1NC(=O)c1cnn2cc(-c3ccncc3)sc12 [Example 153]    > 7.5 µM
Cc1ncc(NC(=O)CN2CCC[C@H]2C)cc1NC(=O)c1cnn2cc(-c3nn(C)nc3C)sc12 [Example 443]    > 7.5 µM

----------
- tested system: PDGFRβ (Rattus norvegicus (Rat))
- Sequence (Q05030 32-1097): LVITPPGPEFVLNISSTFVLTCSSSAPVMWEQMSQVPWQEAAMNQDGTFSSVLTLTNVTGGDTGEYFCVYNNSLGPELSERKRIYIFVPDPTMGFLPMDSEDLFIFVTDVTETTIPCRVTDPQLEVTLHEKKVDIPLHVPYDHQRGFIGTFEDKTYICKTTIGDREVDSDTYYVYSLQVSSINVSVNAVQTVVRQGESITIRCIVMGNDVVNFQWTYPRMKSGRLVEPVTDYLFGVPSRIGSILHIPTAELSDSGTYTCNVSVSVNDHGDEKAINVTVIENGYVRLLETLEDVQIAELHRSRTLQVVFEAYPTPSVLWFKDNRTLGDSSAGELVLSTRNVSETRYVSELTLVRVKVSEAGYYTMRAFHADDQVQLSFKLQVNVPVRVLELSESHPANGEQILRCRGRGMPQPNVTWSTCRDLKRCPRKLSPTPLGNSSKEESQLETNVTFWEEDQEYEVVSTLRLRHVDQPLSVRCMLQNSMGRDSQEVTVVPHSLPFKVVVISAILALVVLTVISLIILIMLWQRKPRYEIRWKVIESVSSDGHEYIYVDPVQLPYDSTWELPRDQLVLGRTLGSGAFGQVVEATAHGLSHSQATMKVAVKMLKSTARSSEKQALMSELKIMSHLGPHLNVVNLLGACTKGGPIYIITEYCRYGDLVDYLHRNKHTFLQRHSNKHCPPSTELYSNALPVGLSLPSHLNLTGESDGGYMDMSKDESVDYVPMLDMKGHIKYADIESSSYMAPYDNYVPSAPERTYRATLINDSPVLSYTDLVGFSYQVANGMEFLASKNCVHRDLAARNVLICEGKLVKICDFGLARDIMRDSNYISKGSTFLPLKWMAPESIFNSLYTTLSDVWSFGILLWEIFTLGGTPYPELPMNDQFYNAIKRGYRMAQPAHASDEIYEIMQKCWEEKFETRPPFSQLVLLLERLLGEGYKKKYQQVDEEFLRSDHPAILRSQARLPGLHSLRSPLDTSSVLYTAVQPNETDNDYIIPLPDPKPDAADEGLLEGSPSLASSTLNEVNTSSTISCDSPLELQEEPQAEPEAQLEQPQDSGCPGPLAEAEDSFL
- experiment notes: PDGFRβ Cellular Assay (PDGFRb P-Y751 HTRF in A10 cells stimulated with PDGF-BB)
- Type: cell-based
- test parameters: PDGFR Cellular IC50
Exam item: assign y to entries whose IC50 is below 0.004 µM and n to entries at or above 0.004 µM. Note that a value of exactly 0.004 µM receives n.

Cc1ncc(NC(=O)CN2CCC[C@H]2C)cc1NC(=O)c1cnn2cc(-c3cn(C)nc3C)sc12    y
Cc1ncc(C(=O)NC2CN(C(C)(C)C)C2)cc1NC(=O)c1cnn2cc(-c3cnn(C)c3)sc12    n
Cc1cc(C(=O)NCCN(C)C2CCCC2)sc1NC(=O)c1cnn2cc(-c3cnn(C)c3)sc12    n
Cc1ncc(NC(=O)CN2CC(C)(C)C2)cc1NC(=O)c1cnn2cc(-c3ccnnc3C)sc12    n
COCCn1cc(-c2cn3ncc(C(=O)Nc4cc(NC(=O)CN5CCCC5(C)C)cnc4C)c3s2)cn1    n
Cc1ncc(NC(=O)CN2CCOC[C@H]2C)cc1NC(=O)c1cnn2cc(-c3cnn(C)c3)sc12    n
COCCn1cc(-c2cn3ncc(C(=O)Nc4cc(NC(=O)CN5CCC6(CC6)C5)cnc4C)c3s2)cn1    y

----------
pIC50, His6-TEV-PDGFRβ (557-1016) (Homo sapiens (Human), UniProt P09619): measured values
pIC50: −log10 of the molar value.
observed property: pIC50

Cc1ncc(NC(=O)CN2CCC[C@@H]2C)cc1NC(=O)c1cnn2cc(-c3cnn(C)c3)sc12    9.05
COC/C=C/c1cn2ncc(C(=O)Nc3cc(C(=O)NCCN4CCCC4(C)C)cnc3C)c2s1    8.89
Cc1ncc(C(=O)NCCN2CC3COCC3C2)cc1NC(=O)c1cnn2cc(-c3cnn(C)c3)sc12 (stereo not drawn)    9.30
Cc1ncc(C(=O)NCC2CCCN2C)cc1NC(=O)c1cnn2cc(-c3cnn4c3OCCC4)sc12 (stereo not drawn)    9.30
Cc1ncc(C(=O)NCCN2CCCC2(C)C)cc1NC(=O)c1cnn2cc(-c3cccnc3)sc12    8.89
Cc1ncc(NC(=O)CN2CCOCC2)cc1NC(=O)c1cnn2cc(-c3cnn(C)c3)sc12    8.82
Cc1ncc(NC(=O)CN2C[C@@H](C)O[C@H](C)C2)cc1NC(=O)c1cnn2cc(-c3cnn(C)c3C)sc12 (relative stereo)    9.30
Cc1ncc(NC(=O)CN2CC(C)(C)C2)cc1NC(=O)c1cnn2cc(-c3cnn(CCO)c3)sc12    9.40
Cc1ncc(C(=O)NCCN2CCC3(CC3)C2)cc1NC(=O)c1cnn2cc(-c3cccnc3)sc12    9.15
Cc1ncc(NC(=O)CN2CCCCC2)cc1NC(=O)c1cnn2cc(-c3cnn4c3OCCC4)sc12    9.52
Cc1ncc(NC(=O)CN2C[C@H](C)O[C@@H](C)C2)cc1NC(=O)c1cnn2cc(-c3cnc(N)c(F)c3)sc12 (relative stereo)    9.22
COc1ncccc1-c1cn2ncc(C(=O)Nc3cc(C(=O)NCCN4CCCC4)cnc3C)c2s1    9.70
Cc1ncc(NC(=O)CN(C)C2CCOCC2)cc1NC(=O)c1cnn2cc(-c3cnn(C(F)F)c3)sc12    9.15
Cc1ncc(NC(=O)CN2CC(C)(C)C2)cc1NC(=O)c1cnn2cc(-c3cnn(C4CS(=O)(=O)C4)c3)sc12    9.30
Cc1ncc(NC(=O)CN2CCc3scnc3C2)cc1NC(=O)c1cnn2cc(-c3cnn(C)c3)sc12    9.10

----------
Assay system His6-TEV-PDGFRβ (557-1016) (Homo sapiens (Human)); read-out recorded as IC50.
observed property: IC50

Cc1ncc(NC(=O)CN2CCCOCC2)cc1NC(=O)c1cnn2cc(-c3cnn(C)c3)sc12    1.4 nM
COCCn1cc(-c2cn3ncc(C(=O)Nc4cc(NC(=O)CN5CCCC6(CC6)C5)cnc4C)c3s2)cn1    0.4 nM
COc1ncccc1-c1cn2ncc(C(=O)Nc3cc(NC(=O)OC[C@@H]4CCCN4C)cnc3C)c2s1    0.2 nM
Cc1ncc(NC(=O)NCC2CCN(C(C)C)CC2)cc1NC(=O)c1cnn2cc(-c3cnn(C)c3)sc12    38.9 nM
Cc1ncc(NC(=O)CN2CC(C)(C)C2)cc1NC(=O)c1cnn2cc(-c3cnn4c3CCC4)sc12    0.2 nM
Cc1ncc(C(=O)NCCN2CCCC2(C)C)cc1NC(=O)c1cnn2cc(-c3cnn(CCC(O)CO)c3)sc12 (stereo not drawn)    0.9 nM
Cc1ncc(NC(=O)CN2CC(C)(C)C2)cc1NC(=O)c1cnn2cc(-c3cccnc3C)sc12    0.6 nM
Cc1ncc(NC(=O)CC2CNC2)cc1NC(=O)c1cnn2cc(-c3cnn4c3CCC4)sc12    11.5 nM
Cc1ncc(NC(=O)CCN2CCCC2(C)C)cc1NC(=O)c1cnn2cc(-c3cnn(C)c3)sc12 [Example 10]    0.3 nM
COc1ncccc1-c1cn2ncc(C(=O)Nc3cc(NC(=O)OCC(C)N4CCCC4)cnc3C)c2s1 (stereo not drawn)    0.2 nM
COCCn1cc(-c2cn3ncc(C(=O)Nc4cc(NC(=O)CN5CCC(C)(C)C5)cnc4C)c3s2)cn1    0.4 nM
COc1ncccc1-c1cn2ncc(C(=O)Nc3cc(C(=O)NCCN4CCCC4C)cnc3C)c2s1 (stereo not drawn)    0.2 nM
Cc1ncc(NC(=O)C2CN(C(C)C)C2)cc1NC(=O)c1cnn2cc(-c3cnn(C)c3C)sc12    0.2 nM
Cc1ncc(NC(=O)CN2CCn3ccnc3C2)cc1NC(=O)c1cnn2cc(-c3cnn(C)c3)sc12    4.1 nM
CCn1nccc1-c1cn2ncc(C(=O)Nc3cc(NC(=O)CN4CC(C)(C)C4)cnc3C)c2s1    0.5 nM
Cc1ncc(NC(=O)CN(C)C2CCOCC2)cc1NC(=O)c1cnn2cc(-c3cnn(C4CC4)c3)sc12    0.3 nM
Cc1ncc(NC(=O)OC[C@@H]2CCCN2C)cc1NC(=O)c1cnn2cc(-c3cccnc3O)sc12    0.6 nM
Cc1ncc(NC(=O)OC[C@@H]2CCCN2C)cc1NC(=O)c1cnn2cc(-c3cn(C)nc3C)sc12    0.3 nM
COCCN(CCNC(=O)c1cnc(C)c(NC(=O)c2cnn3cc(-c4cnn(C)c4)sc23)c1)C(C)C    0.6 nM
COc1ncccc1-c1cn2ncc(C(=O)Nc3cc(NC(=O)CN4CCCC4(C)C)cnc3C)c2s1    0.2 nM
Cc1ncc(NC(=O)CN2Cc3ccncc3C2)cc1NC(=O)c1cnn2cc(-c3cnn(C)c3)sc12    1.8 nM
Cc1ncc(NC(=O)CN2CC(C)(C)C2)cc1NC(=O)c1cnn2cc(-c3cccnc3OC(F)(F)F)sc12    0.4 nM
COc1ncccc1-c1cn2ncc(C(=O)Nc3cc(NC(=O)[C@@H]4C[C@H](C)CN4C)cnc3C)c2s1    0.3 nM
Cc1ncc(C(=O)NCCN2CC3CCC2CC3)cc1NC(=O)c1cnn2cc(-c3cnn(C)c3C)sc12    0.3 nM
Cc1ncc(NC(=O)CN2CC(C)(C)C2)cc1NC(=O)c1cnn2cc(-c3ccnc(N4CCOCC4)c3)sc12    0.2 nM
Cc1ncc(NC(=O)CN2CCCC2(C)C)cc1NC(=O)c1cnn2cc(-c3cccn(CCF)c3=O)sc12    0.7 nM
Cc1ncc(C(=O)NCCN2C[C@H]3CC[C@@H]2C3)cc1NC(=O)c1cnn2cc(-c3cn(C)nc3C)sc12    0.3 nM
Cc1ncc(NC(=O)CC2CN(C)C2)cc1NC(=O)c1cnn2cc(-c3cnn4c3CCC4)sc12 [Example 468]    2.1 nM
Cc1ncc(NC(=O)CNC2CCCC2)cc1NC(=O)c1cnn2cc(-c3cnn4c3CCC4)sc12    0.2 nM
Cc1ncc(C(=O)NCCN2CCCC2(C)C)cc1NC(=O)c1cnn2cc(-c3ccc(C(=O)O)cc3)sc12    1.5 nM
